# study_system: T1, human recombinant soluble CD73 protein (human, UniProt P21589 27-547)
# T1 construct: also called huCD73; rhCD73
# T1 sequence: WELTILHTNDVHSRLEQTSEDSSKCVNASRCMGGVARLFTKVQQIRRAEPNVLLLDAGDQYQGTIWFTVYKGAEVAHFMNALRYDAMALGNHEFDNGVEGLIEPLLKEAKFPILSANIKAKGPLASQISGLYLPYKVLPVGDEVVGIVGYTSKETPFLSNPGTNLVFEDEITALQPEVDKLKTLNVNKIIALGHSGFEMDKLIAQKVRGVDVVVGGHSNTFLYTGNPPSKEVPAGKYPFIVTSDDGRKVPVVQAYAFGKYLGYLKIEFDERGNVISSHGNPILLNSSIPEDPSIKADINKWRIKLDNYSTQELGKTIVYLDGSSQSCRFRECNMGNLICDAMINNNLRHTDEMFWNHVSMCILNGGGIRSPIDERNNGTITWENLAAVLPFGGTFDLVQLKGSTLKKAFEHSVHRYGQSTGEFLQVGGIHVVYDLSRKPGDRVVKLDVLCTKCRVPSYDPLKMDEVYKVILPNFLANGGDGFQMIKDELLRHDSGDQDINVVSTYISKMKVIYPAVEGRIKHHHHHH
# run_description: SPR, Ab captured on Protein A, soluble huCD73 as analyte
# Experimental: SPR measurements were performed on a Biacore™ T200 apparatus at 25° C. Protein-A (GE Healthcare) was immobilized on a Sensor Chip CM5 (GE Healthcare). […] The entire sensorgram sets were fitted using the 1:1 kinetic binding model. Bivalent affinities and kinetic association and dissociation rate constants are calculated. The binding of the antibodies in Table 2 of Example 1 were tested for binding to human soluble dimeric CD73 proteins and were cloned, produced and purified. […]
Threshold rule: koff greater than or equal to 0.0001 s⁻¹ is 1; below that, -1.

Identify whether the reported koff of the following binder is 0.0001 s⁻¹ or greater: H2L4 (antibody, human IgG1, V domains shown) VH: QIQLVQSGAEVKKPGASVKVSCKASGYAFTSYNMYWVRQAPGQSLEWMGYIDPYNGGSSYNLTFKGRVTITVDKSASTAYMELSSLRSEDTAVYYCARGYGNYKAWFAYWGQGTLVTVSS VL: DVQMTQSPSSLSASVGDRVTITCKASQSVSNDVAWYQQKPGKAPKLLIYYASTRYTGVPDRFSGSGYGTDFTFTISSLQPEDIATYFCQQDYSSLTFGQGTKLEIK
1

Identify whether the reported koff of the following binder is 0.0001 s⁻¹ or greater: H3L1 (antibody, human IgG1, V domains shown) VH: QIQLVQSGAEVKKPGASVKVSCKASGYAFTSYNMYWVRQAPGQSLEWIGYIDPYNGGSSYNLTFKGKATITVDKSASTAYMELSSLRSEDTAVYYCARGYGNYKAWFAYWGQGTLVTVSS VL: DIQMTQSPSSLSASVGDRVTITCKASQSVSNDVAWYQQKPGKAPKLLIYYASTRYTGVPSRFSGSGYGTDFTFTISSLQPEDIATYYCQQDYSSLTFGQGTKLEIK
1

Identify whether the reported koff of the following binder is 0.0001 s⁻¹ or greater: H1L2 (antibody, human IgG1, V domains shown) VH: QIQLVQSGAEVKKPGASVKVSCKASGYTFTSYNMYWVRQAPGQRLEWMGYIDPYNGGSSYNLTFKGRVTITRDKSASTAYMELSSLRSEDTAVYYCARGYGNYKAWFAYWGQGTLVTVSS VL: DIQMTQSPSSLSASVGDRVTITCKASQSVSNDVAWYQQKPGKAPKLLIYYASTRYTGVPDRFSGSGYGTDFTFTISSLQPEDIATYYCQQDYSSLTFGQGTKLEIK
-1

Identify whether the reported koff of the following binder is 0.0001 s⁻¹ or greater: H0L4 (antibody, human IgG1, V domains shown, H0 VH limits counted by alignment with H1) VH: QVQLVQSGAEVKKPGASVKVSCKASGYTFTSYNMYWVRQAPGQRLEWMGYIDPYNGGSSYNLTFKGRVTITRDTSASTAYMELSSLRSEDTAVYYCARGYGNYKAWFAYWGQGTLVTVSS VL: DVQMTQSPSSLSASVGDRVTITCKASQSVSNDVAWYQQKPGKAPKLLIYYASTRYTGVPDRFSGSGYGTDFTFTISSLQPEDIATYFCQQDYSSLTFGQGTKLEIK
-1

Identify whether the reported koff of the following binder is 0.0001 s⁻¹ or greater: H3L0 (antibody, human IgG1, V domains shown, L0 VL limits counted by alignment with L1) VH: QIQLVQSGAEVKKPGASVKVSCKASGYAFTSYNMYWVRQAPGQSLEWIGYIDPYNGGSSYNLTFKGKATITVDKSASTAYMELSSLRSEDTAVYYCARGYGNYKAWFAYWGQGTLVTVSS VL: DIQMTQSPSSLSASVGDRVTITCKASQSVSNDVAWYQQKPGKAPKLLIYYASTRYTGVPSRFSGSGSGTDFTFTISSLQPEDIATYYCQQDYSSLTFGQGTKLEIK
1
